These measurements were taken from patent US8071600B2.

Where a name gives a salt, the structure may show the parent alone.
Each entry below carries its reported melting point.

Guide cases for melting point, answers given:
| MOLECULE | melting point |
| --- | --- |
| NC(=O)c1ccc(OCCCCN2CCN(c3cccc4sccc34)CC2)cc1 | 150 to 151.5 °C |
| COc1cc(N(C)C(C)=O)cc(C)c1OCCCN1CCN(c2cccc3sccc23)CC1.Cl | 230 to 234 °C (dec.) |
| COc1cc(N2CCCC2=O)cc(CO)c1OCCCN1CCN(c2cccc3sccc23)CC1 (as salt: hydrochloride) | 144 to 145 °C |
| CC(=O)N1CCC(OCCCN2CCN(c3cccc4sccc34)CC2)CC1.Cl | 208 to 210 °C |
| COc1cc(N2CCOC2=O)cc(C)c1OCCCN1CCN(c2cccc3sccc23)CC1 (as salt: hydrochloride) | 247.5 to 251 °C (dec.) |
| NS(=O)(=O)c1ccc(OCCCN2CCN(c3cccc4sccc34)CC2)cc1 | 199 to 203 °C |

-- ask // lookup melting point for CN(C)c1cc(OCCCCN2CCN(c3cccc4sccc34)CC2)n(C)n1 (as salt: hydrochloride)
-- reply 156.5 to 158.5 °C

-- ask // lookup melting point for C=CCn1nc(C(=O)NC)cc1OCCCN1CCN(c2cccc3sccc23)CC1
-- reply 138.5 to 140.5 °C

-- ask // lookup melting point for CN(C)C(=O)Nc1cc(OCCCCN2CCN(c3cccc4sccc34)CC2)n(C)n1.Cl
-- reply 186 to 187.5 °C

-- ask // lookup melting point for COC(=O)N1CCN(c2cc(C)c(OCCCN3CCN(c4cccc5sccc45)CC3)c(OC)c2)C(=O)C1 (as salt: hydrochloride)
-- reply 223 to 228 °C

-- ask // lookup melting point for CCN(CC)CCNC(=O)c1ccc(OCCCN2CCN(c3cccc4sccc34)CC2)cc1 (as salt: hydrochloride)
-- reply 229.5 to 232.5 °C

-- ask // lookup melting point for NC(=O)c1ccc(F)c(OCCCN2CCN(c3cccc4sccc34)CC2)c1
-- reply 156.5 to 159 °C
